ASSAYED_TARGET: RIPK1 (Homo sapiens, UniProt Q13546)
Sequence (Q13546 1-671): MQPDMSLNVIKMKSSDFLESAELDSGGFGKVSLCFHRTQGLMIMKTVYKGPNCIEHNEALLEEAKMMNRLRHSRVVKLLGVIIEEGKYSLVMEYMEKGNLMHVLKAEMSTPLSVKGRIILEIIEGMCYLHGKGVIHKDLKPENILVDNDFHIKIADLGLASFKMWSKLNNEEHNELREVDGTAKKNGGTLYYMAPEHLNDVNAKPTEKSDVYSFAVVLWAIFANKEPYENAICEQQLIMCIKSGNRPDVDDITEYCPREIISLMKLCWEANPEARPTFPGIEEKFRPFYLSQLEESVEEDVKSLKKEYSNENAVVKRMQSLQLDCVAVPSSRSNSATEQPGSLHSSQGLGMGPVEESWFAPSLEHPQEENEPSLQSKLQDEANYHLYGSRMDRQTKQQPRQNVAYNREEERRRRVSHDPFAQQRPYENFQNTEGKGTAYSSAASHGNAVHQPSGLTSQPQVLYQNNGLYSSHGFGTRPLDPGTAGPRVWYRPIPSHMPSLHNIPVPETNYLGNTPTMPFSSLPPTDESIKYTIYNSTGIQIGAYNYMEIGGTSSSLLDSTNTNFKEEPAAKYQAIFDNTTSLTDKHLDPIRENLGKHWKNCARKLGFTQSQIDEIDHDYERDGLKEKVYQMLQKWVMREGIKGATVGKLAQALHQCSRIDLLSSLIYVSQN
METRIC_NAME: IC50 (µM)

Examples with answers:
molecule="CN1C(=O)C(NC(=O)c2n[nH]c(Cc3ccccc3)n2)CCc2ccc(CN3CCn4ncnc4C3)cc21 (racemic)" reported_measurement=0.378
molecule="O=C(NC1CCc2ccc(CN3CCN(c4ccncc4)CC3)cc2NC1=O)c1ncn(Cc2c(Cl)cccc2Cl)n1 (racemic)" reported_measurement=0.0656
molecule="CN1C(=O)C(NC(=O)c2ncn(Cc3c(Cl)cccc3Cl)n2)CCc2ccc(CN3CCN(c4ccncc4)CC3)cc21 (racemic)" reported_measurement=0.0307
molecule=CN1C(=O)[C@@H](NC(=O)c2n[nH]c(Cc3ccccc3)n2)CCc2ccc(C#CC(C)(C)O)cc21 reported_measurement=0.0392
molecule="CN1C(=O)C(NC(=O)c2cc(Oc3ccccc3)ccn2)CCc2ccc(C#CC(C)(C)O)cc21 (racemic)" reported_measurement=0.0581

(I) CC(C)(O)C#Cc1ccc2c(c1)NC(=O)[C@@H](NC(=O)c1cc(Oc3ccc(F)cc3)ccn1)CC2
(II) CN1C(=O)[C@@H](NC(=O)c2n[nH]c(Cc3ccccc3)n2)CCc2ccc(N3CC4(CCOCC4)C3)cc21
Ask: Kindly identify the item with the lower IC50 figure among these two: I and II Could you answer with the label of the item you picked?
Reply: II

* * *

ASSAYED_TARGET: murine RIP1 (Mus musculus)
Construct: U937 and L929 cells were obtained from the American Type Culture Collection
Sequence (Q60855 whole entry): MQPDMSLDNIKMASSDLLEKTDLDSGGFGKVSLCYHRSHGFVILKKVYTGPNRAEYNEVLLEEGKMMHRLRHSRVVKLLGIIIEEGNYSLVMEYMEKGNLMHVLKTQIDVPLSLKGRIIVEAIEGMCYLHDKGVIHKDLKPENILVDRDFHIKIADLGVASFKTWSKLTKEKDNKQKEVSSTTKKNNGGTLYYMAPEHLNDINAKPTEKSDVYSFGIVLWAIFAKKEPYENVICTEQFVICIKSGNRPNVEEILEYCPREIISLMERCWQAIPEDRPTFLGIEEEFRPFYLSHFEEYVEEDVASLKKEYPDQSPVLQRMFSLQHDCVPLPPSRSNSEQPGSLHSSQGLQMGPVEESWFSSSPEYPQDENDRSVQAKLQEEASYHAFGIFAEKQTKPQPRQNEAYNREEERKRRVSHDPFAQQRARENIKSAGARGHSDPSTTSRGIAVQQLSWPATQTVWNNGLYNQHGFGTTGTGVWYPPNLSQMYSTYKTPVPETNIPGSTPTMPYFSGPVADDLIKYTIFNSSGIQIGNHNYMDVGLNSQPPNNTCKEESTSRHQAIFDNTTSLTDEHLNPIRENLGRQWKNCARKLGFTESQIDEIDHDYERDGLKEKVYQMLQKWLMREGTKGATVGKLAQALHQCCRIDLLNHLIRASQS
MEASUREMENT_DESCRIPTION: L929 cell necroptosis assay (TNFa + zVAD, CellTiter-Glo)
Catalogue of pIC50 readings, one per entry.
Lab note — pIC50 values are minus log10 of concentrations in M.

// field: pIC50; key: CN1C(=O)[C@@H](NC(=O)c2n[nH]c(Cc3ccccc3)n2)CCc2ccc(C#CC(C)(C)C)cc21 [Compound I-21] ; value = 7.60

// recorded pIC50 for CN1C(=O)C(NC(=O)c2n[nH]c(Cc3ccccc3)n2)CCc2ccc(C#CC3(O)COC3)cc21 (racemic) [Compound I-16] : 6.82

Noted for CN1C(=O)C(NC(=O)c2n[nH]c(Cc3ccccc3)n2)CCc2ccc(N3CCC4(CCOCC4)CC3)cc21 (racemic) [Compound I-13] : its pIC50 reads 7.02

So for CN1C(=O)[C@@H](NC(=O)c2n[nH]c(Cc3ccccc3)n2)CCc2ccc(C#Cc3cccnc3)cc21 [Compound I-18] , the logged pIC50 turned out to be 8.23

* * *

ASSAYED_TARGET: human RIP1 (Homo sapiens)
Construct: U937 and L929 cells were obtained from the American Type Culture Collection
Sequence (Q13546 1-671): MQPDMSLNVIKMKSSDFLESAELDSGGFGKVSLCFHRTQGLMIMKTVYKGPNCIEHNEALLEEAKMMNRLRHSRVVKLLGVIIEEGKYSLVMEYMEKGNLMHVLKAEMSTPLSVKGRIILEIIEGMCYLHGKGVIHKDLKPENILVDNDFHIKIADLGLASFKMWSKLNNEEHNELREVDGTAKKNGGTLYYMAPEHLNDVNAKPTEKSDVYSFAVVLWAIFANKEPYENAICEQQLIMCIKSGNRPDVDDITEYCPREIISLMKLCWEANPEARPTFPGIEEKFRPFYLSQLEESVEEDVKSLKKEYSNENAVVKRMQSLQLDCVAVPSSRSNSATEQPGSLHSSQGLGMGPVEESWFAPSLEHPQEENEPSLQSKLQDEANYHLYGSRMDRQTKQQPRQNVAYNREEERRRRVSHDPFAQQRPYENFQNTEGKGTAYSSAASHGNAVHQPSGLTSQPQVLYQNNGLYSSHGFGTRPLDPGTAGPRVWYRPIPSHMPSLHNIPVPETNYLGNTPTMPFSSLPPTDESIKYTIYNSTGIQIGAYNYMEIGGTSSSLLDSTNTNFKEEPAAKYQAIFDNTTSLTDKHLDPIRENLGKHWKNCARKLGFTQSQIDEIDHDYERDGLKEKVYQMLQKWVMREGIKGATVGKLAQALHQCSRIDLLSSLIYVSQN
MEASUREMENT_DESCRIPTION: U937 cell necroptosis assay (TNFa + zVAD, CellTiter-Glo)
EXPERIMENTAL_CONTEXT: U937 Zvad TNF CTG Recovery, U937 cells, TNFa 2 ng/mL + zVAD-fmk, 18 hours
As shown below, each of these compounds has a reported IC50 value.
Respond numerically; units are nM and should not be typed.

compound="[2H]C([2H])([2H])N1C(=O)C(NC(=O)c2n[nH]c(Cc3ccccc3)n2)CCc2ccc(C#CC(C)(C)O)cc21 (racemic)" assayed_target="human RIP1 (Homo sapiens)" unit_string=nM reported_measurement=7.3

The measured IC50 associated with CN1C(=O)C(NC(=O)c2cc(Oc3ccccc3)ccn2)CCc2ccc(N3CCC4(CCOCC4)CC3)cc21 (racemic) reads 4.8

Entry CN1C(=O)C(NC(=O)c2nccc(-c3ccccc3)n2)CCc2ccc(CN3CCn4ncnc4C3)cc21 (racemic) — recorded IC50 = 216

# IC50 (compound: O=C(NC1CCc2ccc(N3CC4(CCOCC4)C3)cc2NC1=O)c1n[nH]c(Cc2ccccc2)n1 (racemic) ) is 13.1

Measured IC50, CN1C(=O)[C@@H](NC(=O)c2cc(Oc3ccccc3)ccn2)CCc2ccc(C#CC3(O)COC3)cc21 : 0.8

Value of measured IC50 for the entry CN1C(=O)[C@@H](NC(=O)c2n[nH]c(Cc3ccccc3)n2)CCc2ccc(C#Cc3cccnc3)cc21 : 3.2

* * *

ASSAYED_TARGET: human RIP1 (Homo sapiens, UniProt Q13546)
Construct: U937 and L929 cells were obtained from the American Type Culture Collection
Sequence (Q13546 1-671): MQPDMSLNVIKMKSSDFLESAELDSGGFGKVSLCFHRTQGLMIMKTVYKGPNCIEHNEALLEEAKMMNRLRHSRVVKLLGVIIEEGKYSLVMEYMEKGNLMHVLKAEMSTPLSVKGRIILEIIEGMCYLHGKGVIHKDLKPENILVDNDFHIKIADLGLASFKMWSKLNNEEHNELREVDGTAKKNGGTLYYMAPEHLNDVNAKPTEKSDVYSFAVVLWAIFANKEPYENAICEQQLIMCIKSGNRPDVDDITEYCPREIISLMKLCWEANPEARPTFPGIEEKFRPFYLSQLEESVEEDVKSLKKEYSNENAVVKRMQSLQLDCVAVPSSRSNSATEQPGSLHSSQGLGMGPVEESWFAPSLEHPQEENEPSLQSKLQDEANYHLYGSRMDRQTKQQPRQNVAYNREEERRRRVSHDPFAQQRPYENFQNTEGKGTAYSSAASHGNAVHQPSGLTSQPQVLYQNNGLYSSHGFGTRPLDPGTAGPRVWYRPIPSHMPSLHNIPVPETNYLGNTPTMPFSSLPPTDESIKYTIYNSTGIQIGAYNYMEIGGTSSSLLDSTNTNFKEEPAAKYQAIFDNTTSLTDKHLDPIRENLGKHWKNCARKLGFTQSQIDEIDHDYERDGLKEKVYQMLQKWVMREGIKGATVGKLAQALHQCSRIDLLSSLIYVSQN
MEASUREMENT_DESCRIPTION: U937 cell necroptosis assay (TNFa + zVAD, CellTiter-Glo)
EXPERIMENTAL_CONTEXT: U937 Zvad TNF CTG Recovery, U937 cells, TNFa 2 ng/mL + zVAD-fmk, 18 hours
METRIC_NAME: IC50 (nM)
Please respond with the number in nM and leave the unit unwritten.

Solved cases (3 shown):
compound="CN1C(=O)C(NC(=O)c2cc(Oc3ccccc3)ccn2)CCc2ccc(N3CC4(CCOCC4)C3)cc21 (racemic) [Compound I-31]" unit_string=nM reported_measurement=17.6
compound="CN1C(=O)C(NC(=O)c2n[nH]c(Cc3ccccc3)n2)CCc2ccc(C#Cc3ccncc3)cc21 (racemic) [Compound I-19]" unit_string=nM reported_measurement=3.4
compound="O=C(NC1CCc2ccc(CN3CCN(c4ccncc4)CC3)cc2NC1=O)c1ncn(Cc2c(Cl)cccc2Cl)n1 (racemic) [Compound I-5]" unit_string=nM reported_measurement=16.4

Memo: CC(C)(O)C#Cc1ccc2c(c1)NC(=O)[C@@H](NC(=O)c1cc(Oc3ccc(F)cc3)ccn1)CC2 [Compound I-35] , reported IC50: 552

Per the record, CN1C(=O)C(NC(=O)c2cc(Oc3ccccc3)ccn2)CCc2ccc(N3CC4(CCCCC4)C3)cc21 (racemic) [Compound I-30] has IC50 of 16.2

For record CN1C(=O)C(NC(=O)c2n[nH]c(Cc3ccccc3)n2)CCc2ccc(N3CCN4CCC3CC4)cc21 (racemic) [Compound I-11] the listed IC50 is 1080

Kindly note the recorded IC50 for [2H]C([2H])([2H])N1C(=O)C(NC(=O)c2cc(Oc3ccccc3)ccn2)CCc2ccc(N3CC4(CCOCC4)C3)cc21 (racemic) [Compound I-29] , which is 6.3
